- Tested on: MALME-3M melanoma
- EXPERIMENT_DESCRIPTION: NCI tumour cell line growth inhibition, 48 h
MEASUREMENT_TYPE: TGI

CC(=O)Nc1ccc2c(c1)[nH]c(=O)c1cc(Cl)ccc12	46.7 µM
C[N+](C)([O-])C12CC3CC(CC(C3)C1)C2	> 100 µM
CCOC(=O)NC(Nc1ccc(C(=O)O)cc1)(C(F)(F)F)C(F)(F)F	> 100 µM
O=C(/C=C/c1ccccn1)c1ccccc1	35.1 µM
COc1cc2c(cc1OC)C(C1CC1)ON(C)CC2 (stereo not drawn)	> 100 µM
CC1=NN(C(=O)CC(=O)Nc2cccc(C)c2)C(=O)C1N=Nc1ccc(C(=O)O)cc1 (stereo not drawn)	> 100 µM
Cc1cc(C)n(C(C)(C(=O)Cc2ccccc2)n2nc(C)cc2C)n1	> 100 µM
COc1ccccc1-c1cc(=O)c2cccnc2[nH]1	> 100 µM

Reference source: PubChem BioAssay (NCI)
